Where these numbers come from: ChEMBL document CHEMBL1156131

I'd appreciate it if you could supply pIC50 values for the items below.
# subject of test: High affinity nerve growth factor receptor (Homo sapiens, UniProt P04629)
# Sequence (P04629 whole entry): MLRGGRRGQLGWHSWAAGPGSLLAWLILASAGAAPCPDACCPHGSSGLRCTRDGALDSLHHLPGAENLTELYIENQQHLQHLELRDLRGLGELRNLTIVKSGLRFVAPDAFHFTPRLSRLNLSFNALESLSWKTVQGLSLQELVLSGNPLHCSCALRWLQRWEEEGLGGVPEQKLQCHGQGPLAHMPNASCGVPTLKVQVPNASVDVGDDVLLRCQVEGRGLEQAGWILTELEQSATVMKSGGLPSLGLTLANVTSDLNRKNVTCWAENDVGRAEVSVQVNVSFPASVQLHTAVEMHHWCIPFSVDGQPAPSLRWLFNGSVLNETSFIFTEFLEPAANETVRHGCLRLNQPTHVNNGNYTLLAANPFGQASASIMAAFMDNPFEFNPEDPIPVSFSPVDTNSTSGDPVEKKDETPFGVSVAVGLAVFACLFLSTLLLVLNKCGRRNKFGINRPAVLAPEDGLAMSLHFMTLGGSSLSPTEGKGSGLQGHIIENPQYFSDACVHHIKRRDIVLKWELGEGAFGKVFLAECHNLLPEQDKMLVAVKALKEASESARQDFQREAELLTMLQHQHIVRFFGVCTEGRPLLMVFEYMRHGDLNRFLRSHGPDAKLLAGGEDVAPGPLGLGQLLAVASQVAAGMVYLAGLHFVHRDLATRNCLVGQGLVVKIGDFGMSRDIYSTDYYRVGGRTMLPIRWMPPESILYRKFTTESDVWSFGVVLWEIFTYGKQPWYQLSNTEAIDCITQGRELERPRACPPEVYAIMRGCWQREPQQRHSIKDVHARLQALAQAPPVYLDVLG
Just so you know, pIC50 here is -log10 of the concentration in molar units; reply with that number alone.

## Task Supply reported pIC50 belonging to this compound: Cc1cc(Nc2cnc(C#N)c(N[C@@H](C)c3ccc(F)cn3)n2)n[nH]1
## Result 6.17

## Task Supply reported pIC50 belonging to this compound: Cc1cc(Nc2nc(N[C@@H](C)c3ncc(F)cn3)c(C#N)nc2C)n[nH]1
## Result 5.83

---

I'd appreciate it if you could supply Vd values for the items below.
# assay: Volume of distribution at steady state in Wistar rat at 10 mg/kg, po and 3 mg/kg, iv
# Type: ADME, organism-based
# test settings: in vivo, read-out: Vdss
Give the quantity in L/kg, number only.

## Task Supply reported Vd belonging to this compound: Cc1cc(Nc2nc(N[C@@H](C)c3ncc(F)cn3)c(C#N)nc2C)n[nH]1
## Result 1.6

## Task Supply reported Vd belonging to this compound: Cc1cc(Nc2cnc(C#N)c(N[C@@H](C)c3ccc(F)cn3)n2)n[nH]1
## Result 2.2
